- System under test: OsSMF1 (Oryza sativa, UniProt Q6ZLB0 1-436)
- Sequence: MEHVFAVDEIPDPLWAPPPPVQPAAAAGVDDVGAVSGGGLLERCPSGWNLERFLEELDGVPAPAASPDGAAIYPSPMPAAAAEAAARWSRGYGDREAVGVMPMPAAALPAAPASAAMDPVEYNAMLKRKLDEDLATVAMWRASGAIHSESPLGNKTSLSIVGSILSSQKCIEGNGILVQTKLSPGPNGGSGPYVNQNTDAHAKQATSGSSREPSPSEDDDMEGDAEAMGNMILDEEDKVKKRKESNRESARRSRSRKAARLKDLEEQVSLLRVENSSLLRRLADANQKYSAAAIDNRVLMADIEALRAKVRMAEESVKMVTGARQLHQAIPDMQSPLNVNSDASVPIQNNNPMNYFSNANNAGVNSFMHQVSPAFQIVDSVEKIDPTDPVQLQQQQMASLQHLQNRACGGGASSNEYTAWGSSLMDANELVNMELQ
- Assay procedure: protein-binding microarray (RPBM); PBS, 2% BSA, 51.3 ng/ul salmon testes DNA, 50 uM zinc acetate, 200 nM TF, 25 C, 1 h; high values mean tight binding
- Test context: protein: recombinant; tags: N-terminal polyhistidine and DsRed monomer fusion (pET32a); chain copies: 2; label: CyDye5-dUTP incorporated in the synthesized complementary strand; 3' TTTTT single-stranded linker to array surface; dsDNA, one strand shown
The full ranking holds about 39,000 sequences; the median of “fluorescence intensity (a.u.)” is about 4,300, and the highest 2% start at about 39,000. Many of the other results were omitted from the sample, so the highest values are more common in it than they were.
Assay metric: binding signal

Macromolecule sequence: GAGTCGTTATCTGCATTGATGTGTCTCCTGACTCCTGAGACGGAGTCACCTAGTGCAG
binding signal: 3840 fluorescence intensity (a.u.)
//
Macromolecule sequence: TCAATCATGAGGACATGGTAATATATTGCTTGTGTTGCTTCGGAGTCACCTAGTGCAG
binding signal: 3550 fluorescence intensity (a.u.)
//
Macromolecule sequence: GGTCCCTCAGCGGTTTTGGCTGACGTGGCGCATACGTGGCCGGAGTCACCTAGTGCAG
binding signal: 51700 fluorescence intensity (a.u.)
//
Macromolecule sequence: TTTAGATGGCGGTTTTGGCTGACGTGGCGTCTACGTGACGCGGAGTCACCTAGTGCAG
binding signal: 30700 fluorescence intensity (a.u.)
//
Macromolecule sequence: TGTGACCCATTCTAATACAATAAATCTGGACATGTGTACTCGGAGTCACCTAGTGCAG
binding signal: 3630 fluorescence intensity (a.u.)

Given item `GACCCCGGTTTTGTCCCACGTGGCGGCTGACTCAGCGTGGCGGAGTCACCTAGTGCAG` , the value recorded as its binding signal is 22500 fluorescence intensity (a.u.)

Given item `CCCACCCCGCGTGCAGCTTAGGCGAACCCTCCTCCCTCCGCGGAGTCACCTAGTGCAG` , the value recorded as its binding signal is 3660 fluorescence intensity (a.u.)

Given item `AGGCGGTTTTGGCTGATGTGGCGTCTACGTGGCTTGTTTGCGGAGTCACCTAGTGCAG` , the value recorded as its binding signal is 25300 fluorescence intensity (a.u.)

Given item `CCTGCAGCCAGGTCCTCGTATCATAGATGACGACGACTTCCGGAGTCACCTAGTGCAG` , the value recorded as its binding signal is 4660 fluorescence intensity (a.u.)
